RECORDED ENDPOINT: melting point

INSERT INTO measurements (compound, value_reported) VALUES
  ('O=C1Nc2ncc(/C=C/C(=O)N3CC4C=C(c5nccs5)CC4C3)cc2CN2CCOCC12 (stereo not drawn)', '> 260 °C'),
  ('O=C1Nc2ncc(/C=C/C(=O)N3CC4C=C(c5ccccc5)CC4C3)cc2C(=O)N2CCNCC12 (stereo not drawn)', '230 to 232 °C'),
  ('O=C1CNCc2cc(/C=C/C(=O)N3CC4C=C(c5ccncc5)CC4C3)cnc2N1 (stereo not drawn)', '> 260 °C'),
  ('O=C(Cc1ccncc1)Nc1ccc(/C=C/C(=O)N2CC3C=C(c4ccncc4)CC3C2)cn1 (stereo not drawn)', '> 250 °C'),
  ('CN1CC(=O)Nc2ncc(/C=C/C(=O)N3C[C@@H]4CN(c5ccccc5)C[C@@H]4C3)cc2C1 [compound 58]', '178.9 to 179.8 °C'),
  ('O=C1CC2CCCCN2Cc2cc(/C=C/C(=O)N3C[C@@H]4CC(c5ccccc5)=C[C@@H]4C3)cnc2N1 (stereo partly drawn)', '214.9 to 232.7 °C'),
  ('O=C1Nc2ncc(/C=C/C(=O)N3CC4C=C(c5ccccc5)CC4C3)cc2CN2CCNCC12 (stereo not drawn)', '191 to 216 °C'),
  ('O=C1COc2cc(/C=C/C(=O)N3CC4C=C(c5ccccc5)CC4C3)cnc2N1 (stereo not drawn)', '> 260 °C'),
  ('O=C1Nc2ncc(/C=C/C(=O)N3C[C@@H]4CN(c5ccccc5)C[C@@H]4C3)cc2CN2CCOCC12 (stereo partly drawn)', '> 250 °C');

====

- System: Staphylococcus aureus ATCC 29213
- EXPERIMENT DESCRIPTION: Antibacterial susceptibility testing, IC90 determination (STA)
- Assay type: cell-based
- MEASUREMENT CONTEXT: Staphylococcus aureus, ATCC29213, Staphylococcus aureus ATCC 29213, broth microdilution, resazurin; read-out: STA (361.159) IC90
RECORDED ENDPOINT: IC90

INSERT INTO assay_data (molecule, study_system, recorded_endpoint, value_reported) VALUES
  ('COc1cncc(C(=O)Nc2ccc(/C=C/C(=O)N3CC4C=C(c5nccs5)CC4C3)cn2)c1 (stereo not shown) [compound 32]', 'Staphylococcus aureus ATCC 29213', 'IC90', '< 0.23 µg/mL'),
  ('O=C(Nc1ncc(/C=C/C(=O)N2CC3C=C(c4ccccc4)CC3C2)cc1CN1CCOCC1)c1cccnc1 (stereo not shown) [compound 34]', 'Staphylococcus aureus ATCC 29213', 'IC90', '> 33.8 µg/mL'),
  ('N#Cc1cc(NC(=O)c2cccnc2)ncc1/C=C/C(=O)N1CC2C=C(c3ccccc3)CC2C1 (stereo not shown) [compound 27]', 'Staphylococcus aureus ATCC 29213', 'IC90', '> 29.1 µg/mL'),
  ('CC1(C)Oc2cc(/C=C/C(=O)N3CC4C=C(c5ccccc5)CC4C3)cnc2NC1=O (stereo not shown) [compound 42]', 'Staphylococcus aureus ATCC 29213', 'IC90', '< 0.2 µg/mL'),
  ('Cc1nc(N)ccc1/C=C/C(=O)N1CC2C=C(c3ccccc3)CC2C1 (stereo not shown) [compound 21]', 'Staphylococcus aureus ATCC 29213', 'IC90', '> 21.8 µg/mL'),
  ('O=C(Nc1ccc(/C=C/C(=O)N2CC3C=C(c4ccccc4)CC3C2)cn1)c1ccccn1 (stereo not shown) [compound 24]', 'Staphylococcus aureus ATCC 29213', 'IC90', '> 27.5 µg/mL'),
  ('C=CCN1C[C@@H]2CN(C(=O)/C=C/c3cnc4c(c3)CN(C)CC(=O)N4)C[C@@H]2C1 [compound 61]', 'Staphylococcus aureus ATCC 29213', 'IC90', '> 24.1 µg/mL'),
  ('COc1cncc(C(=O)Nc2ccc(/C=C/C(=O)N3CC4C=C(c5ccccc5)CC4C3)cn2)c1 (stereo not shown) [Cpd. No. 7]', 'Staphylococcus aureus ATCC 29213', 'IC90', '< 0.22 µg/mL'),
  ('COc1cncc(C(=O)Nc2ccc(/C=C/C(=O)N3CC4C=C(c5ccsc5)CC4C3)cn2)c1 (stereo not shown) [compound 33]', 'Staphylococcus aureus ATCC 29213', 'IC90', '< 0.23 µg/mL'),
  ('Cc1cncc(C(=O)Nc2ccc(/C=C/C(=O)N3CC4C=C(c5ccsc5)CC4C3)cn2)c1 (stereo not shown) [compound 5]', 'Staphylococcus aureus ATCC 29213', 'IC90', '< 0.22 µg/mL'),
  ('O=C1COCc2cc(/C=C/C(=O)N3CC4C=C(c5ccccc5)CC4C3)cnc2N1 (stereo not shown) [compound 39]', 'Staphylococcus aureus ATCC 29213', 'IC90', '< 0.19 µg/mL'),
  ('Cc1nc(NC(=O)c2cccnc2)ccc1/C=C/C(=O)N1CC2C=C(c3ccccc3)CC2C1 (stereo not shown) [compound 25]', 'Staphylococcus aureus ATCC 29213', 'IC90', '> 28.4 µg/mL'),
  ('O=C1Nc2ncc(/C=C/C(=O)N3CC4C=C(c5ccccc5)CC4C3)cc2Cn2cncc21 (stereo not shown) [compound 71]', 'Staphylococcus aureus ATCC 29213', 'IC90', '< 0.21 µg/mL');

====

Attribute: IC50
- STUDY SYSTEM: UniProt:Q6GI75
- Sequence (Q6GI75 whole entry): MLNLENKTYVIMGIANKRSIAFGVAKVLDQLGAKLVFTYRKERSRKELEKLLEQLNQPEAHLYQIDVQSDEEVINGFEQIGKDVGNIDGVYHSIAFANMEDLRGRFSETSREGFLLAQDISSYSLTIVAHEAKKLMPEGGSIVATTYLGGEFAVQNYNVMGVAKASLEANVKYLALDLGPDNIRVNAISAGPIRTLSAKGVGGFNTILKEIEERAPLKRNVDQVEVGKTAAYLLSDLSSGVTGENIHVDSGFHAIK
- EXPERIMENT DESCRIPTION: Staphylococcus aureus FabI enzyme inhibition assay
- Format: biochemical
- MEASUREMENT CONTEXT: read-out: FabI (300.235) IC50 (converted)
RECORDED ENDPOINT: IC50 (µM)

INSERT INTO assay_data (molecule, value_reported) VALUES
  ('Cc1nc(NC(=O)c2cccnc2)ccc1/C=C/C(=O)N1CC2C=C(c3ccccc3)CC2C1 (stereo not shown)', 14.4),
  ('O=C1Nc2ncc(/C=C/C(=O)N3CC4C=C(c5ccccc5)CC4C3)cc2Cn2nccc21 (stereo not shown)', 1.83),
  ('Cc1cncc(C(=O)Nc2ccc(/C=C/C(=O)N3CC4C=C(c5ccnn5C)CC4C3)cn2)c1 (stereo not shown)', 1.32),
  ('O=C1Nc2ncc(/C=C/C(=O)N3CC4C=C(c5ccccc5)CC4C3)cc2C(=O)N2CCOCC12 (stereo not shown)', 1.23),
  ('CC(C)C1Oc2cc(/C=C/C(=O)N3CC4C=C(c5ccccc5)CC4C3)cnc2NC1=O (stereo not shown)', 1.42),
  ('O=C1Nc2ncc(/C=C/C(=O)N3CC4C=C(c5ccccc5)CC4C3)cc2CN2CCOCC12 (stereo not shown) [compound 78]', 1.07),
  ('O=C1CNCc2cc(/C=C/C(=O)N3CC4C=C(c5ccccc5)CC4C3)cnc2N1 (stereo not shown) [compound 47]', 0.874);

====

- Tested on: Staphylococcus aureus ATCC 29213
- EXPERIMENT DESCRIPTION: Antibacterial susceptibility testing, IC90 determination (STA)
- Type: cell-based
- MEASUREMENT CONTEXT: Staphylococcus aureus, ATCC29213, Staphylococcus aureus ATCC 29213, broth microdilution, resazurin; read-out: STA (361.159) IC90
Reported IC90 values for a set of compounds
RECORDED ENDPOINT: IC90 (µg/mL)

INSERT INTO results (compound, study_system, endpoint_unit, censoring_sign, value_reported) VALUES
  ('COc1cncc(C(=O)Nc2ccc(/C=C/C(=O)N3CC4C=C(c5ccncc5)CC4C3)cn2)c1 (stereo not drawn)', 'Staphylococcus aureus ATCC 29213', 'µg/mL', '<', 0.23),
  ('CC(C)C1Oc2cc(/C=C/C(=O)N3CC4C=C(c5ccncc5)CC4C3)cnc2NC1=O (stereo not drawn)', 'Staphylococcus aureus ATCC 29213', 'µg/mL', '<', 0.21),
  ('CC(=O)N1CCN2Cc3cc(/C=C/C(=O)N4CC5C=C(c6cccs6)CC5C4)cnc3NC(=O)C2C1 (stereo not drawn)', 'Staphylococcus aureus ATCC 29213', 'µg/mL', '<', 0.25),
  ('Cc1cc(N)ncc1/C=C/C(=O)N1CC2C=C(c3ccccc3)CC2C1 (stereo not drawn)', 'Staphylococcus aureus ATCC 29213', 'µg/mL', '>', 21.8),
  ('CN1CC(=O)Nc2ncc(/C=C/C(=O)N3C[C@@H]4CN(c5cccnc5)C[C@@H]4C3)cc2C1', 'Staphylococcus aureus ATCC 29213', 'µg/mL', '>', 26.4),
  ('O=C1Nc2ncc(/C=C/C(=O)N3CC4C=C(c5nccs5)CC4C3)cc2CN2CCOCC12 (stereo not drawn)', 'Staphylococcus aureus ATCC 29213', 'µg/mL', '<', 0.23),
  ('O=C(Nc1ccc(/C=C/C(=O)N2CC3C=C(c4ccsc4)CC3C2)cn1)c1cccnc1 (stereo not drawn)', 'Staphylococcus aureus ATCC 29213', 'µg/mL', '<', 0.21),
  ('CC1(C)Oc2cc(/C=C/C(=O)N3CC4C=C(c5nccs5)CC4C3)cnc2NC1=O (stereo not drawn)', 'Staphylococcus aureus ATCC 29213', 'µg/mL', '<', 0.2),
  ('CC(=O)N1CCN2C(=O)c3cc(/C=C/C(=O)N4CC5C=C(c6ccccc6)CC5C4)cnc3NC(=O)C2C1 (stereo not drawn)', 'Staphylococcus aureus ATCC 29213', 'µg/mL', '=', 0.48),
  ('O=C1COCc2cc(/C=C/C(=O)N3CC4C=C(c5ccsc5)CC4C3)cnc2N1 (stereo not drawn)', 'Staphylococcus aureus ATCC 29213', 'µg/mL', '<', 0.2),
  ('O=C(Nc1ccc(/C=C/C(=O)N2CC3C=C(c4ccccc4)CC3C2)cn1)c1ccncc1 (stereo not drawn)', 'Staphylococcus aureus ATCC 29213', 'µg/mL', '=', 0.5),
  ('CC(=O)Nc1ccc(/C=C/C(=O)N2CC3C=C(c4ccccc4)CC3C2)cn1 (stereo not drawn)', 'Staphylococcus aureus ATCC 29213', 'µg/mL', '=', 0.34),
  ('Cn1nccc1C1=CC2CN(C(=O)/C=C/c3cnc4c(c3)COCC(=O)N4)CC2C1 (stereo not drawn)', 'Staphylococcus aureus ATCC 29213', 'µg/mL', '=', 1.51),
  ('O=C1Nc2ncc(/C=C/C(=O)N3CC4C=C(c5ccncc5)CC4C3)cc2CO1 (stereo not drawn)', 'Staphylococcus aureus ATCC 29213', 'µg/mL', '=', 0.76),
  ('O=C1COCc2cc(/C=C/C(=O)N3C[C@H]4CC(c5ccccc5)=C[C@H]4C3)cnc2N1 (single isomer, unassigned)', 'Staphylococcus aureus ATCC 29213', 'µg/mL', '=', 0.37),
  ('CN1CC(=O)Nc2ncc(/C=C/C(=O)N3CC4C=C(c5ccccc5)CC4C3)cc2C1 (stereo not drawn)', 'Staphylococcus aureus ATCC 29213', 'µg/mL', '=', 0.35),
  ('COc1nc(NC(C)=O)ccc1/C=C/C(=O)N1CC2C=C(c3ccccc3)CC2C1 (stereo not drawn)', 'Staphylococcus aureus ATCC 29213', 'µg/mL', '>', 25.5),
  ('Cn1nccc1C1=CC2CN(C(=O)/C=C/c3cnc4c(c3)CNCC(=O)N4)CC2C1 (stereo not drawn)', 'Staphylococcus aureus ATCC 29213', 'µg/mL', '=', 1.54),
  ('COc1ccc(C(=O)Nc2ccc(/C=C/C(=O)N3CC4C=C(c5ccccc5)CC4C3)cn2)c(OC)n1 (stereo not drawn)', 'Staphylococcus aureus ATCC 29213', 'µg/mL', '>', 31.3),
  ('O=C(Cc1ccncc1)Nc1ccc(/C=C/C(=O)N2CC3C=C(c4ccccc4)CC3C2)cn1 (stereo not drawn)', 'Staphylococcus aureus ATCC 29213', 'µg/mL', '=', 0.86),
  ('Cn1nccc1C1=CC2CN(C(=O)/C=C/c3cnc4c(c3)OC(C)(C)C(=O)N4)CC2C1 (stereo not drawn)', 'Staphylococcus aureus ATCC 29213', 'µg/mL', '<', 0.2),
  ('N#Cc1cc(N)ncc1/C=C/C(=O)N1CC2C=C(c3ccccc3)CC2C1 (stereo not drawn)', 'Staphylococcus aureus ATCC 29213', 'µg/mL', '>', 22.5),
  ('CC(C)C1Oc2cc(/C=C/C(=O)N3CC4C=C(c5ccccc5)CC4C3)cnc2NC1=O (stereo not drawn)', 'Staphylococcus aureus ATCC 29213', 'µg/mL', '<', 0.21),
  ('O=C1CNCc2cc(/C=C/C(=O)N3CC4C=C(c5nccs5)CC4C3)cnc2N1 (stereo not drawn)', 'Staphylococcus aureus ATCC 29213', 'µg/mL', '=', 0.24);
